Test: Cytotoxicity against human HeLa cells after 72 hrs by MTS assay
Format: cell-based
Condition parameters: HeLa cells
Entries annotated with measured CC50 at 72 h
Endpoint name: CC50 at 72 h (µM)

{"Smiles string": "CCCCn1nc(-c2nccs2)nc2c(=O)n(C)c(=O)nc1-2", "Test result": 2.5}
{"Smiles string": "CCCCn1nc(-c2ccccc2)nc2c(=O)n(C)c(=O)nc1-2", "Test result": 18.5}
{"Smiles string": "CCn1nc(-c2ncc[nH]2)nc2c(=O)n(C)c(=O)nc1-2", "Test result": 11.9}
{"Smiles string": "CC1=C(O)C(=O)C=C2C1=CC=C1[C@@]2(C)CC[C@@]2(C)[C@@H]3C[C@](C)(C(=O)O)CC[C@]3(C)CC[C@]12C", "Test result": 3}
{"Smiles string": "CCCCn1nc(-c2ccc(C)o2)[n+]([O-])c2c(=O)n(C)c(=O)nc1-2", "Test result": 9}
{"Smiles string": "CCn1nc(-c2cccs2)nc2c(=O)n(C)c(=O)nc1-2", "Test result": 10.5}
{"Smiles string": "CCCCn1nc(-c2ccc(C)s2)nc2c(=O)n(C)c(=O)nc1-2", "Test result": 15.3}
{"Smiles string": "CCCCn1nc(-c2ccc[nH]2)[n+]([O-])c2c(=O)n(C)c(=O)nc1-2", "Test result": 6.3}
{"Smiles string": "CC(C)Cn1nc(-c2nc3ccccc3s2)nc2c(=O)n(C)c(=O)nc1-2", "Test result": 7.9}
{"Smiles string": "CCn1nc(-c2ccc(C)o2)nc2c(=O)n(C)c(=O)nc1-2", "Test result": 22.3}
{"Smiles string": "CC(C)CCn1nc(-c2nc3ccccc3s2)nc2c(=O)n(C)c(=O)nc1-2", "Test result": 16.9}
{"Smiles string": "CCn1nc(-c2ccc(C)s2)[n+]([O-])c2c(=O)n(C)c(=O)nc1-2", "Test result": 15}
{"Smiles string": "CCn1nc(-c2ccc[nH]2)nc2c(=O)n(C)c(=O)nc1-2", "Test result": 10.7}
{"Smiles string": "Cn1c(=O)nc2n(Cc3ccccc3)nc(-c3nc4ccccc4s3)nc-2c1=O", "Test result": 7.3}
